# Tested on: MS2 coat protein
# assay explanation: apparent Kd, MS2 coat protein; higher = weaker binding; RNA-MaP array; FMN 200 µM where present
# condition set: ligand present: flavin mononucleotide; designed as: ON switch for flavin mononucleotide
// values below are reported apparent Kd
measurement type: apparent Kd (µM)

>>> readout_value("GGGUACAUGGGAGGAUAUCAUGUAAAUACAUGAGGAUCACCCAUGUCGAUGGAGACAUCGGAGAUUGAGAAGGCCGAUGUACCG")
0.0377
>>> readout_value("GGUGCAUAUGAGAAGGCGAUCAUGAAACAUGAUCGAGGAUAUCAUGUAAACAUGAGGAUCACCCAUGUAUGGGAAUAUUGCACC")
0.0126
>>> readout_value("UAGGUACAUGAGGAUCACCCAUGUGGGUCGGUCACAGGAUAUCGCCGUGGGCCCAGGCGGCGAGAAGGGUGCCGGU")
0.0348
>>> readout_value("CGCUACUGCCAGAAGGACAUGAGGAUCACCCAUGUAGGAUAUGGGUGACGAGGACCAGUGUAGAGAAACUACGCUACAGUAGCG")
0.0475
>>> readout_value("AGUAAGAUGCAGAAGGUGUUAGCUAGAGCUACGACAUGAGGAUCACCCAUGUACUAGAAAACGUACAAGGAUAUGCAUCUUACA")
0.00598
>>> readout_value("UUUGGGAGCACAGGAUAUGGCACCUCGAAGGCGCCAGAAGGGUGAUUCUGUUGGUGGCCACAUGAGGAUCACCCAUGUGCCUCC")
0.0369
>>> readout_value("AAAAAAAAAACAUAGGAUAUCCGGGCCGGGACAUGAGGAUCACCCAUGUCAAAAAAAAUUGGCCCGGAGAAGGAUGAAAAAAAAAA")
0.0149

###

# Test system: MS2 coat protein
# assay explanation: apparent Kd, MS2 coat protein; higher = weaker binding; RNA-MaP array
# condition set: designed as: ON switch for tryptophan; no ligand
// values below are reported apparent Kd
measurement type: apparent Kd (nM)

>>> readout_value("UUUCAAGUAUCGGCCGCCACUCUAGUUGGUUGUUCAAUCCGAUUACAUGAGGAUCACCCAUGUCUGAGGACCGGGAUAAAGUAAU")
26.1
>>> readout_value("AAGAACAUGAGGAUCACCCAUGUGAUCGUUCGAGGACCGGUACGGCCGCCACUCGGACCUGUGUCCAGGCACGGGCCGACGCGAC")
77.8
>>> readout_value("CGCGAGACGGCGGCCGCCACUUGUUGUUGGAAACUCGAGUUACAUGAGGAUCACCCAUGUCCUUAAAGGACCGGGCCGUAAGUAA")
226
>>> readout_value("UCCCUACCGUCGGCCGCCACUGGGUCAUACAGUUCGUAACUACAUGAGGAUCACCCAUGUGCAGCCAGGACCGGGACGCGCCUUG")
177
>>> readout_value("AUUGUCAAGUCGGCCGCCACUUCUGCCAUGGCCACCAGUCGACAUGAGGAUCACCCAUGUCUCUUAAGGACCGGGACUUUCAAUU")
13.2

###

# System: MS2 coat protein
# assay explanation: apparent Kd, MS2 coat protein; higher = weaker binding; RNA-MaP array; FMN 200 µM where present
# condition set: ligand present: flavin mononucleotide; designed as: OFF switch for flavin mononucleotide
measurement type: apparent Kd (nM)

>>> readout_value("UACGUACAGAAGUACGCCGGGUCCAGAAGGGACAUGAGGAUCACCCAUGUACCGUUGAUUGCUUGUCAGGAUAUGGACCCGGCC")
27.4
>>> readout_value("GACAUUGGCAAGAAGGCAAACAUGAGGAUCACCCAUGUUCUGUAUGUAUAUUGAGGAUAUUGCCAAUGUAUGUGGAUCACCCAA")
8.28
>>> readout_value("UAAUUAAGUGUGAGGAUAUGCUGGUCCUUGGAUCAGCAGAAGGCACAUGAGGAUCACCCAUGUAAAUUAUUUAU")
437
>>> readout_value("UCUAGACAUGAGGAUCACCCAUGUGAGGAUAUGAUGCGAUCGUCGAAAGACGAUAGCAUCAGAAGGCACAAAUG")
200
